Measured values drawn from patent US7112586B2 for this set.

Target: Motilin Receptor (Oryctolagus cuniculus)
Construct: The muscle tissue was homogenized in 10 volumes of 50 mM Tris-Cl; from tissue; host or cells: rabbit colon smooth muscle, crude membrane homogenate
Sequence (G1T803 1-400): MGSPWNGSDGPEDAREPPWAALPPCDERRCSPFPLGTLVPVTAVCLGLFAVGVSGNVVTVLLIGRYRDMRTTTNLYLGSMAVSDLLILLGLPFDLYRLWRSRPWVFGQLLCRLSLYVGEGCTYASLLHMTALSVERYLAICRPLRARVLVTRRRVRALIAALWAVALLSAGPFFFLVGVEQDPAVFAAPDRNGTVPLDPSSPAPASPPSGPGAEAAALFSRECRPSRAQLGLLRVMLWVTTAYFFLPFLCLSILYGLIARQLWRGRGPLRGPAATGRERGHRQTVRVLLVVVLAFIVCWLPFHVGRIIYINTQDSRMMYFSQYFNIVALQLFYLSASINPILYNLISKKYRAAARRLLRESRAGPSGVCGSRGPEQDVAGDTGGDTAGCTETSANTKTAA
Assay: Motilin receptor binding, rabbit colon membranes, 125I porcine motilin
Conditions: rabbit colon membranes; read-out: Rabbit Colon IC50
Measured Property: IC50 (nM)

A. O=C(CCCC(=O)N(Cc1ccc(F)cc1)c1cccc(OCCN2CCNCC2)c1)N(CCc1ccccc1)Cc1ccccc1 [compound 179]
B. COc1ccc(CN(C(=O)CCCC(=O)N(CCc2ccccc2)Cc2ccccc2)c2cccc(OCCN3CCOCC3)c2)cc1 [compound 171]
C. O=C(CCCC(=O)N(Cc1ccccc1F)c1cccc(OCCN2CCOCC2)c1)N(CCc1ccccc1)Cc1ccccc1 [compound 170]
D. Cc1c(OCCN2CCCC2)cccc1N(Cc1ccc(F)cc1)C(=O)CCCC(=O)N(CCc1ccccc1)Cc1cccc(C(=O)O)c1 [compound 215]
**Q:** Please list the entries, largest IC50 first. Answer by writing out the labels in the requested order.
**A:** B, A, C, D
